- assayed target: α1 -Adrenergic receptor
- protocol: α1-Adrenergic receptor binding assay ([^3 H] prazosin competition, rat brain cortex membranes)
- experimental context: preliminary results; read-out: affinity to α1 -adrenoceptor (Ki)
observation type: pKi
Here pKi is given on a logarithmic scale as minus log10 of the concentration in mol/L.

COc1ccccc1N1CCN(CC2CN=C3c4ccccc4N=C(SC)N32)CC1 (racemic) [(RS)-I, reference compound] | 8.45
COc1ccccc1N1CCN(C[C@H]2CN=C3c4ccccc4NC(=O)N32)CC1 [Example 18] | 10.00
COc1ccccc1N1CCN(C[C@H]2CN=C3c4ccccc4N=C(SC)N32)CC1 [Example 16] | 8.73

Query: pKi; subject: COc1ccccc1N1CCN(C[C@@H]2CN=C3c4ccccc4N=C(SC)N32)CC1 [Example 17] 6.26

The origin of these recorded values is patent US5932584A.
